src = patent US20130012436A1

assayed system: T1, human IL-23 (human, UniProt Q9NPF7 20-189; P29460 23-328)
T1 sequence (looked up) 1: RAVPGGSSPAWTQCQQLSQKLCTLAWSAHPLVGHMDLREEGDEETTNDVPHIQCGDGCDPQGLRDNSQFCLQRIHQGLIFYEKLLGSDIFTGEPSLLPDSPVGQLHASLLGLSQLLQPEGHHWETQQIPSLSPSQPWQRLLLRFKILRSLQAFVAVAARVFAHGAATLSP
T1 sequence (looked up) 2: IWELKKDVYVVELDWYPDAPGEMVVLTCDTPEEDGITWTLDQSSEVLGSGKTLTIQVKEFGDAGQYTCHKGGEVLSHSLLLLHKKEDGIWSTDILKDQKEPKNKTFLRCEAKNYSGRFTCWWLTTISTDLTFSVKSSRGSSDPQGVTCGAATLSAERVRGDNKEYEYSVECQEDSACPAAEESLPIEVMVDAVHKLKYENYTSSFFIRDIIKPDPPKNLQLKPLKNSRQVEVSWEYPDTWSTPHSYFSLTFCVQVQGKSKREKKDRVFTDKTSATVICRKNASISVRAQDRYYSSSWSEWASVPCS
assay name: cell-based or functional assay
measurement type: Kit 225 pSTAT3 IC50 (nM)
Reply numerically in nM, unit not repeated.

Ask: Consider the binder 1572F05 (designed binder, captured by anti-His mAb) MGVSDVPRDLEVVAATPTSLLISWGHYPLHIRYYRITYGETGGNSPVQEFTVPRQKYTATISGLKPGVDYTITVYAVTYYNEADYSQIPISINYRTEIDKPSQHHHHHH and give its recorded Kit 225 pSTAT3 IC50 (nM).
Reply: 3

Ask: Provide measured Kit 225 pSTAT3 IC50 (nM) value, entry: 1572B10 (designed binder, captured by anti-His mAb) MGVSDVPRDLEVVAATPTSLLISWGHYPMHVRYYRITYGETGGNSPVQEFTVPVPRHTATISGLKPGVDYTITVYAVTYYNEADYSQIPISINYRTEIDKPSQHHHHHH
Reply: 0.8

Ask: Please supply the value of reported Kit 225 pSTAT3 IC50 (nM) for the item 1486C04 (designed binder, captured by anti-His mAb) MGVSDVPRDLEVVAATPTSLLISWGHYPMHVRYYRITYGETGGNSPVQEFTVPPHRYTATISGLKPGVDYTITVYAVTYYNEADYSQIPISINYRTEIDKPSQHHHHHH
Reply: 31.9

Ask: Return value of Kit 225 pSTAT3 IC50 (nM) for input 1487H04 (designed binder, captured by anti-His mAb) MGVSDVPRDLEVVAATPTSLLISWGHYPMHVRYYRITYGETGGNSPVQEFTVPARQYTATISGLKPGVDYTITVYAVTYYQEYEYRYIPISINYRTEIDKPSQHHHHHH , no commentary.
Reply: 2
